Target: erythrocytes infected with P. falciparum field isolate 9775
Experiment: flow cytometry, staining of IEs

binder	% parasite recognition (%)
MGC34 (antibody) VH: EVQLVESGGGLVQPGGSLRLSCEASGFTFSSYWMSWVRQAPGKGLEWVANINQDGSQKDYVDSVKGRFTISRDTAKNSLYLQMNSLRAEDTAVYYCARERLCTDDSHMHGEEDLPRPSISAEPGTVIPLGSHVTFVCRGPVGIHTFRLERESRSLYTETEDVTQVSPSESEARFRIESVTEGNAGLYRCVYYKPPKWSEQSDYLELLVKGEDVTRALFTHCGGDGKESDYHMDVWGKGTTVTVSS VL: QTVVTQEPSLTVSPGGTVTLTCASSTGAVTSGYYPSWFHQKPGQPVRALIYSTSKTHSWTPARFSGSLLGGKAALTLSNVQPEDEADYYCLLYYGGPQPWVFGGGTKLTVQ	17.5
MGC26 (antibody) VH: EVQLVDSGGGLVQPGGSLRLSCAASGFTFSTYWMTWVRQTPGKGLEWVASIKQDGTERYYVDSVKGRFIISRDNAKNSLYLQMHSLRAEDTAVYYCVRDRFCRDHMHIEEDLPRPSISPEPATVIPLGSHVTIVCRGPVGVETFRLQKESRSLYNDTEDVSQPSPSESEARFRIDSVSEGHGGLYRCLYYKSSKWSEQSDYLEMLVKGEDVTWALFPYCGGDGEESDYYMDVWGKGTTVTVSS VL: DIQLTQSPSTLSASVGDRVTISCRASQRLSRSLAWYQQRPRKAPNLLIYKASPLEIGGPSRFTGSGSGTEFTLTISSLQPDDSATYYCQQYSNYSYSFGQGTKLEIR	3.4
MGD41 (antibody) VH: EVQLVESGPGLVKPSGTLSVTCTISGGSINTDKWWTWVRQPPGKGLEWVGEVLHTGSTNYNPSLRGRVTISVDKSKNQFSLRLSSVTAADTAVYYCATISTLRPQRDIEDLPRPSLSAEPGTVVPLGSHVTFVCRGPVGVQTFRLERESRSTYNDTEDVSQPSPFESEARFRIDSVSEGNAGPYRCIYYKSPKWSDQSDYVELLVKGEDVTWAPPQSQLAPRACPQGELRTSTDIFSMNVWGKGTTVTVSS VL: AIRMTQSPSSLSAFTGDRVTISCRASQDIGNYLDWYHQKPGRAPKLLIHGASTLLTGVPSRFSGSGSGTDFTLNITCLQSGDFGIYYCLQYYSSPPAFGPGTRLEIK	8.6
MGD33 (antibody) VH: HVQLQESGPGLVKPSETLSLSCAVTGGSITSSKWWTWVRQGPDKGLEWIGKIYHNGTTNYNPSLKSRVAMSVDKSKNQFSLRLTSVTAADTAVYYCATASPFKSHHRTTEKLPRPSISAEPGTVIPLGSRVTFVCRGPVGVQTFRLERETRSTYNDTEDVSQVSPSESEARFRIDSVSEGYAGPYRCVYYKAPKWSEQSDYLDLLVKGEDVTWALTQPQLDPRACPQGDLRMSTDIYCMDVWGKGTTVTVSS VL: AIRLTQSPSSLSASIGDRVTITCRASQDISTYLAWYQQESGKAPRLLIFAASSLQTGVPSRFSGSGSGTDFTLTISGLQSEDFATYYCQQYYCFPPDFGQGTRLDIK	8.5
MGC28 (antibody) VH: EVQLVESGGGLVQPGGSLRLSCEASGFTFSSYWMTWVRQAPGKGLEWVANINQDGSERYYVDSVKGRFTISRDTVKNSLYLQMNNLRAEDTAVYYCARQRFCSDGSLFHGEDLPRPTISAETGTVISLGSHVTFVCRGPLGVQTFRLERESRSRYSETEDVSQVGPSESEARFRIDSVSEGNAGLYRCIYYKPPKWSEQSDYLELRVKGEDVTWALLTYCGGDRDESDYYMDVWGKGTTVTVSS VL: QTVVTQEPSLTVSPGGTVTLTCASSTGSVTSGSFPNWFQQTPGQAPRSLIYSTTKKHSWTPARFSGSLLGGKAALTVSDTQPEDEAEYYCLLYCGGGQPWVFGGGTKLTVL	9.8
